- setup-conditions: 298.15 K; 101 kPa; Liquid
assay-metric: mass density (kg/m3)
Express it in kg/m3; write the number only.

Examples with answers:
> print(dat)
                          molecule  recorded.value
1             COc1ccccc1 [anisole]           993.6
2           C1COCCO1 [1,4-dioxane]          1028.2
3  C=COCCCC [1-(ethenyloxy)butane]           780.2
4        C1CCOC1 [tetrahydrofuran]           881.5

Shifting focus to the molecule that follows.
Look at this molecule and give its reported mass density. CCCCCCOC(C)=O [hexyl ethanoate] 868.3
